- testTarget: T1, human PCSK9 (PCSK9 antigen, SEQ ID NO. 53) (human, UniProt A8T644 31-152; Q8NBP7 153-692, Biotin-labelled on amines in the MSD-SET and sorting experiments; positions not given.)
- T1 construct: Biotin-labelled in MSD-SET; also called PCSK9-WT; PCSK9 protein
- assayProtocol: flow cytometry, PCSK9 left on CHO-LDLR cells (anti-His-FITC) after premix with 10 nM antibody
// reported Fluorescence Signal Value for each item listed
No unit in the answer, only the number.

binder="ADI-10086 (antibody, human IgG2, kappa, V domains shown, IgG) VH: QLQLQESGPGLVKPSETLSLTCTVSGGSIRSSAYYWGWIRQPPGKGLEWIGSINYRGSTYYNPSLKSRVTISVDTSKNQFSLKLSSVTAADTAVYYCARENSGVVPAAGPNWFGPWGQGTLVTVSS VL: EIVLTQSPATLSLSPGERATLSCRASQSVSSYLAWYQQKPGQAPRLLIYDASNRATGIPARFSGSGSGTDFTLTISSLEPEDFAVYYCQQRRNWFTFGGGTKVEIKR" readoutnumber=5830
binder="Bococizumab (antibody, V domains shown) VH: QVQLVQSGAEVKKPGASVKVSCKASGYTFTSYYMHWVRQAPGQGLEWMGEISPFGGRTNYNEKFKSRVTMTRDTSTSTVYMELSSLRSEDTAVYYCARERPLYASDLWGQGTTVTVSS VL: DIQMTQSPSSLSASVGDRVTITCRASQGISSALAWYQQKPGKAPKLLIYSASYRYTGVPSRFSGSGSGTDFTFTISSLQPEDIATYYCQQRYSLWRTFGQGTKLEIK" readoutnumber=6270

Lab note: next binder to report on.
Return reported Fluorescence Signal Value; argument: ADI-10090 (antibody, human IgG2, kappa, V domains shown, IgG) VH: QLQLQESGPGLVKPSETLSLTCTVSGGSIWSSSYYWTWIRQPPGKGLEWIGSINYRGSTYYNPSLKSRVTISVDTSKNQFSLKLSSVTAADTAVYYCARENSGVVPAAGPNWFDPWGQGTLVTVSS VL: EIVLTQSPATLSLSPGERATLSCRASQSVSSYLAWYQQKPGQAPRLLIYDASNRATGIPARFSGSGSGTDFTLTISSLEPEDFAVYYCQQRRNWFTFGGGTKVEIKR 5810
